// data source = ChEMBL document CHEMBL3588767

experiment: Neuroprotective activity against 0.1 uM amyloid beta 42-induced toxicity in rat PC12 cells assessed as cell viability after 24 hrs by MTT assay; format: functional, cell-based; conditions: PC-12, 24 h
pEC50: −log10 of the molar value.

- structure.smiles: "COc1ccc(-c2cc(=O)c3c(O)cc(O)c(-c4cc(-c5cc(=O)c6c(O)cc(OC)cc6o5)ccc4O)c3o2)cc1"
  pEC50: 4.97
- structure.smiles: "COc1ccc(-c2cc(=O)c3c(O)cc(O)c(-c4cc(-c5cc(=O)c6c(O)cc(O)cc6o5)ccc4OC)c3o2)cc1"
  pEC50: 5.29
- structure.smiles: "COc1ccc(-c2cc(=O)c3c(O)cc(OC)c(-c4cc(-c5cc(=O)c6c(O)cc(O)cc6o5)ccc4OC)c3o2)cc1"
  pEC50: 5.28
- structure.smiles: "COc1ccc(-c2cc(=O)c3c(O)cc(O)c(-c4cc(-c5cc(=O)c6c(O)cc(OC)cc6o5)ccc4OC)c3o2)cc1"
  pEC50: 5.01

---

assay: Neuroprotective activity against 0.1 uM amyloid beta 42-induced toxicity in rat PC12 cells assessed as cell viability at 10 uM after 24 hrs by MTT assay; type: functional, PC-12

- molecule: "COc1ccc(-c2cc(=O)c3c(O)cc(OC)c(-c4cc(-c5cc(=O)c6c(O)cc(O)cc6o5)ccc4OC)c3o2)cc1"
  Activity: "80.5%"
- molecule: "COc1cc(O)c2c(=O)cc(-c3ccc(Oc4c(OC)cc5oc(-c6ccc(O)cc6)cc(=O)c5c4O)cc3)oc2c1"
  Activity: "55.5%"
- molecule: "O=c1cc(-c2ccc(O)cc2)oc2cc(O)cc(O)c12"
  Activity: "41%"
- molecule: "COc1cc(O)c2c(=O)cc(-c3ccc(O)c(-c4c(OC)cc(O)c5c(=O)cc(-c6ccc(O)cc6)oc45)c3)oc2c1"
  Activity: "52.6%"
- molecule: "COc1ccc(-c2cc(=O)c3c(O)cc(O)c(-c4cc(-c5cc(=O)c6c(O)cc(O)cc6o5)ccc4O)c3o2)cc1"
  Activity: "49.3%"
- molecule: "O=C(O[C@@H]1Cc2c(O)cc(O)cc2O[C@@H]1c1cc(O)c(O)c(O)c1)c1cc(O)c(O)c(O)c1 [EPIGALOCATECHIN GALLATE]"
  Activity: "49.5%"
- molecule: "COc1ccc(-c2cc(=O)c3c(O)cc(OC)c(-c4cc(-c5cc(=O)c6c(O)cc(OC)cc6o5)ccc4O)c3o2)cc1"
  Activity: "45.1%"
- molecule: "COc1cc2oc(-c3ccc(O)cc3)cc(=O)c2c(O)c1Oc1ccc(-c2cc(=O)c3c(O)cc(O)cc3o2)cc1"
  Activity: "65.7%"
- molecule: "COc1ccc(-c2cc(=O)c3c(O)cc(O)cc3o2)cc1-c1c(O)cc(O)c2c(=O)cc(-c3ccc(O)cc3)oc12"
  Activity: "44.7%"
- molecule: "O=c1cc(-c2ccc(O)c(-c3c(O)cc(O)c4c(=O)cc(-c5ccc(O)cc5)oc34)c2)oc2cc(O)cc(O)c12"
  Activity: "37.6%"
- molecule: "COc1ccc(-c2cc(=O)c3c(O)cc(OC)c(-c4cc(-c5cc(=O)c6c(O)cc(OC)cc6o5)ccc4OC)c3o2)cc1"
  Activity: "49.9%"
- molecule: "COc1ccc(-c2cc(=O)c3c(O)cc(O)c(-c4cc(-c5cc(=O)c6c(O)cc(O)cc6o5)ccc4OC)c3o2)cc1"
  Activity: "83.1%"
- molecule: "COc1ccc(-c2cc(=O)c3c(O)cc(O)c(-c4cc(-c5cc(=O)c6c(O)cc(OC)cc6o5)ccc4OC)c3o2)cc1"
  Activity: "83.1%"
- molecule: "COc1ccc(-c2cc(=O)c3c(O)cc(OC)c(-c4c(OC)cc(O)c5c(=O)cc(-c6ccc(OC)cc6)oc45)c3o2)cc1"
  Activity: "46.7%"
- molecule: "COc1cc(O)c2c(=O)cc(-c3ccc(OC)c(-c4c(O)cc(O)c5c(=O)cc(-c6ccc(O)cc6)oc45)c3)oc2c1"
  Activity: "59.8%"
- molecule: "O=c1cc(-c2ccc(Oc3c(O)cc4oc(-c5ccc(O)cc5)cc(=O)c4c3O)cc2)oc2cc(O)cc(O)c12"
  Activity: "38.7%"
- molecule: "COc1cc(O)c2c(=O)cc(-c3ccc(O)cc3)oc2c1-c1cc(-c2cc(=O)c3c(O)cc(O)cc3o2)ccc1O"
  Activity: "34.2%"
- molecule: "COc1cc(O)c2c(=O)cc(-c3ccc(OC)c(-c4c(OC)cc(O)c5c(=O)cc(-c6ccc(O)cc6)oc45)c3)oc2c1"
  Activity: "65.3%"
- molecule: "COc1ccc(-c2cc(=O)c3c(O)cc(O)cc3o2)cc1-c1c(OC)cc(O)c2c(=O)cc(-c3ccc(O)cc3)oc12"
  Activity: "56.5%"
- molecule: "O=c1cc(-c2ccc(O)cc2)oc2c(-c3c(O)cc(O)c4c(=O)cc(-c5ccc(O)cc5)oc34)c(O)cc(O)c12"
  Activity: "31.7%"
- molecule: "COc1ccc(-c2cc(=O)c3c(O)cc(OC)c(-c4cc(-c5cc(=O)c6c(O)cc(O)cc6o5)ccc4O)c3o2)cc1"
  Activity: "55.3%"
- molecule: "COc1ccc(-c2cc(=O)c3c(O)cc(O)c(-c4cc(-c5cc(=O)c6c(O)cc(OC)cc6o5)ccc4O)c3o2)cc1"
  Activity: "76.4%"
- molecule: "COc1cc(O)c2c(=O)cc(-c3ccc(O)c(-c4c(O)cc(O)c5c(=O)cc(-c6ccc(O)cc6)oc45)c3)oc2c1"
  Activity: "39.3%"
- molecule: "COc1cc2oc(-c3ccc(O)cc3)cc(=O)c2c(O)c1-c1cc(-c2cc(=O)c3c(O)cc(O)cc3o2)ccc1O"
  Activity: "38.5%"
